system: HCC 2998; assay: NCI tumour cell line growth inhibition, 48 h
The source made the active and inactive calls. No stated cut-off is given here; in the data, active = GI50 up to about 1.1 µM and inactive = higher.
Returns: one label drawn from true = active, false = inactive

The examples below pair each entry with its known result.
Compound	Assigned Category
CC(C)[C@H](O)C(=O)N[C@H]1Cc2ccc3c(c2)[C@]24C5=C(N=C(O5)[C@H](C(C)C)NC1=O)c1nc(Cl)c(o1)-c1c(Cl)[nH]c5cccc(c15)-c1cccc2c1N[C@H]4O3	true
Cc1nc2c(o1)C(=O)c1ccccc1/C2=N\c1ccccc1	false
CCOC(=O)C[n+]1cccc(C2(c3cc4ccccc4[nH]3)OCCO2)c1	false
CC(=O)Nc1[nH]n(C)c(=O)c1-c1nnc(C)s1	false
COc1ccc2nc3cc(Cl)ccc3c(SCC(=O)Nc3ccccc3-c3ccccc3NC(=O)CSc3c4ccc(Cl)cc4nc4ccc(OC)cc34)c2c1	false
NC(=O)c1c(-c2ccccc2)c(-c2ccccc2)cc2c(=O)c3ccccc3[nH]c12	false
CNC1=Nc2ccc(Cl)cc2C(c2ccccc2)=NN1C	false
CC1(C)N=c2c(ncn2Cc2ccccc2)=C(C(N)=O)N1	false
O=C(CC(=O)Nc1ccccc1Cl)NNC(Sc1ccccc1)c1cc(/N=N/c2ccc(Br)cc2)ccc1O (stereo not given)	false
CCOc1cc2c(cc1O)/C(=N\N)C[C@@H]1[C@@H]2CC[C@]2(C)[C@@H](O)CC[C@@H]12	false

Please examine the following record next.
[Q] Entry CC(NC(=O)c1ccc(NP(=O)(OCc2ccc([N+](=O)[O-])o2)N(C)CCCCCl)cc1)c1ccc(OCC2CCCCC2)c(C(N)=O)c1 (stereo not given) : call = ?
[A] false

###

system: TK-10; experiment: NCI tumour cell line growth inhibition, 48 h
Counter-ions that a name gives are not always drawn. Calls of active or inactive are those of the source. Cut-off read from the data, not from the text of the source: active = GI50 up to about 1.1 µM and inactive = higher.
Attribute: GI50

Worked examples, 8 compounds total:
Compound	GI50
CC1(C)N=c2c(ncn2Cc2ccccc2)=C(C(N)=O)N1	> 100 µM (inactive)
C1CCC(CC2CCC(NC3=NCCO3)CC2)CC1 (stereo unspecified)	15.3 µM (inactive)
COC(=O)c1c(O)ccc2c1c1c(n2CCc2ccccc2)C(=O)c2ccccc2C1	34.3 µM (inactive)
NCCCCN [PUTRESCINE HYDROCHLORIDE]	> 100 µM (inactive)
CC1=C(C(=O)Nc2ccccc2C)C(c2ccccc2C)C(C(=O)Nc2ccccc2C)=C(C)N1	28.8 µM (inactive)
O=C(NC1=C(Cl)C(=O)c2ccccc2C1=O)C(=O)c1c(O)c2ccccc2oc1=O	17.5 µM (inactive)
Brc1ccc2c(-c3csc(-c4c[nH]c5cc(Br)ccc45)n3)c[nH]c2c1	30.8 µM (inactive)
Cc1ccc(N(Cc2ccccc2)Cc2ccccc2)cc1	> 100 µM (inactive)

Data point: OCC1OC(n2cnc3c(Cl)nc(Nc4ccccc4)nc32)CC1O (stereo unspecified) ; GI50 = > 100 µM (inactive)

Data point: `Cn1nc2ccc3nccc(NCCNCCCl)c3c2n1` ; GI50 = > 100 µM (inactive)

Data point: `CN(Cc1cnc2c(N)nc(N)nc2n1)c1ccc(Cl)cc1` ; GI50 = 38.7 µM (inactive)

Data point: `COc1ccc(-c2c(C#N)c(-c3ccc(C)cc3)n(NS(=O)(=O)c3ccc(C)cc3)c(=O)c2C#N)cc1` ; GI50 = 87.3 µM (inactive)

Data point: `O=[N+]([O-])/C=C/c1cc2ccc3ccccc3c2[nH]1` ; GI50 = 1.58 µM (inactive)

Data point: NC(=O)CC(N)C(=O)NC(Cc1ccccc1)C(=O)NC(Cc1ccccc1)NC(=O)C(Cc1c[nH]c2ccccc12)C(=O)O (stereo unspecified) ; GI50 = > 100 µM (inactive)

Data point: `O=C(CC(=O)c1ccc([N+](=O)[O-])cc1)C(=O)Nc1nccs1` ; GI50 = > 100 µM (inactive)

Data point: `COc1ccc(-c2c3ccccc3c(-c3ccc(OC)cc3)c3ccccc23)cc1` ; GI50 = > 100 µM (inactive)

Data point: `Cc1cccc(/N=N/c2ccc(O)c(CN(C)C)c2)c1` ; GI50 = 22.9 µM (inactive)

Data point: `CC(C)(C)c1cc(S(=O)(=O)O)c2oc(-c3ccccc3)cc(=O)c2c1` ; GI50 = > 100 µM (inactive)

Data point: `CC(=O)N(C(C)=O)c1cc2c3c(c1)CCCN3CCC2` ; GI50 = > 10 µM (inactive)

Data point: `Cc1cc(N(CCC#N)CCC#N)ccc1/C(Sc1ccccc1)=C(\NC(=O)/C=C/c1ccccc1)C(=O)Sc1ccccc1` ; GI50 = 5.35 µM (inactive)

Data point: Cc1cn(C2CC(O)C(COC(=O)NCCC(F)(F)C(F)(F)C(F)(F)C(F)(F)F)O2)c(=O)[nH]c1=O (stereo unspecified) ; GI50 = > 100 µM (inactive)

###

system: MOLT-4; test: NCI tumour cell line growth inhibition, 48 h
Calls of active or inactive are those of the source. Cut-off read from the data, not from the text of the source: active = GI50 up to about 1.1 µM and inactive = higher.
Attribute: GI50

Molecule	GI50
CN(C)CCC1(C2=CCCC2)CC/C(=C\c2ccccc2Cl)C1=O (stereo not given)	4.57 µM (inactive)
CCCN(CCCCC(NC(C)=O)C(=O)NCc1ccccc1)C(=O)NC (stereo not given)	> 100 µM (inactive)
O=C(/C=C/NC(=O)OCc1ccccc1)OCc1ccccc1	> 100 µM (inactive)

Data point: Cc1cccc(CC(Cc2c(C)cccc2C(=O)O)C(=O)O)c1 (stereo not given) ; GI50 = > 100 µM (inactive)

Data point: COc1cc(C(=O)C2C(=O)c3ccccc3C2C2(O)c3ccccc3CC2C(O)c2cc(OC)c(OC)c(OC)c2)cc(OC)c1OC (stereo not given) ; GI50 = > 100 µM (inactive)

###

system: SK-MEL-5; experiment: NCI tumour cell line growth inhibition, 48 h
The source made the active and inactive calls. Rule as the data show it: active = GI50 up to about 1.1 µM and inactive = higher.
Returns: one label drawn from 1 = active, 0 = inactive

The examples below pair each entry with its known result.
Compound	Assayed Target	Assigned Category
CC12CC(=O)NN=C1c1ccccc1C2 (configuration not stated)	SK-MEL-5	0
C=C(C[N+](C)(C)C)N/N=C/c1oc(-c2ccc(OC)c(OC)c2)c(-c2ccc(OC)c(OC)c2)c1[N+](=O)[O-]	SK-MEL-5	0
O=C(c1ccccc1)C1OC12C(=O)Nc1c(Cl)cc(Cl)cc12 (configuration not stated)	SK-MEL-5	0
Nc1nc(N)c(Cn2ccnc2)c(O)n1	SK-MEL-5	0
O=c1cc(NCC2CCCCC2)[nH]c(=O)[nH]1	SK-MEL-5	0
CCOC(=O)[C@@]12CCC(C1=O)[C@](C)(O)C[C@@H]2c1ccccc1	SK-MEL-5	0
N#Cc1nc(-c2ccccc2C(=O)O)oc1N	SK-MEL-5	0
Cc1cccc(-n2c(=S)[nH]c3c(sc(=O)n3-c3ccccc3C)c2=O)c1	SK-MEL-5	0

Please examine the following record next.
[Q] Entry `CC(C)[C@H](O)C(=O)N[C@H]1Cc2ccc3c(c2)[C@]24C5=C(N=C(O5)[C@H](C(C)C)NC1=O)c1nc(Cl)c(o1)-c1c(Cl)[nH]c5cccc(c15)-c1cccc2c1N[C@H]4O3` : call = ?
[A] 1

###

system: LOX IMVI; assay: NCI tumour cell line growth inhibition, 48 h
The source made the active and inactive calls. Rule as the data show it: active = GI50 up to about 1.1 µM and inactive = higher.
Returns: one label drawn from active, inactive

O=[N+]([O-])c1ccc2sc(/C=N/c3ccccn3)cc2c1 inactive

[Q] Entry `O=C1C2=C(N[C@@H](c3ccccc3)[C@H](c3ccccc3)N2)C(=O)c2ccccc21` : call = ?
[A] inactive

[Q] Entry `O=C1Nc2cccc(C(F)(F)F)c2/C1=N/Nc1ccccc1[N+](=O)[O-]` : call = ?
[A] inactive

[Q] Entry `C=C1[C@@H](C)[C@H]2[C@H](Cc3ccccc3)NC(=O)[C@]23OC(=O)/C=C/[C@H](O)CCC[C@@H](C)C/C=C/[C@H]3[C@@H]1O` : call = ?
[A] active

[Q] Entry `COc1ccc(NC(=O)/C(=C/c2ccccc2)C(C)=O)cc1` : call = ?
[A] inactive

[Q] Entry `CCOC(=O)n1c2ccccc2c2c(O)c(OC)c3c(c21)C(=O)NC3=O` : call = ?
[A] inactive

###

Attribute: GI50
test system: SN12C; test: NCI tumour cell line growth inhibition, 48 h
Activity calls are given as the source filed them. Rule as the data show it: active = GI50 up to about 1.1 µM and inactive = higher.

Worked examples, 5 molecules total:
Molecule	Assayed Target	GI50
NC(=O)CC(N)C(=O)NC(Cc1ccccc1)C(=O)NC(Cc1ccccc1)NC(=O)C(Cc1c[nH]c2ccccc12)C(=O)O (stereo unspecified)	SN12C	> 100 µM (inactive)
CC(CO)(CBr)COC(=O)c1cc(Br)c(N)c(Br)c1 (stereo unspecified)	SN12C	> 100 µM (inactive)
CC(=O)N(C(C)=O)c1cc2c3c(c1)CCCN3CCC2	SN12C	> 10 µM (inactive)
Cc1cccc(-n2c(N)c(-c3nc4ccccc4[nH]3)sc2=S)c1	SN12C	25.3 µM (inactive)
Nc1ncnc2c1nnn2C1C=CC(CP(=O)(O)O)C1 (stereo unspecified)	SN12C	> 100 µM (inactive)

Data point: `Cc1cc(NS(=O)(=O)c2ccc(NC(=O)c3cccc4c(NNc5ccc(S(N)(=O)=O)cc5)c5ccccc5nc34)cc2)no1` ; GI50 = 49.9 µM (inactive)

Data point: `N#Cc1nc(-c2ccccc2C(=O)O)oc1N` ; GI50 = > 100 µM (inactive)

Data point: Cc1c(N)nc(C(CC(N)=O)NCC(N)C(N)=O)nc1C(=O)NC(C(=O)NC(C)C(O)C(C)C(=O)NC(C(=O)NCCc1nc(-c2nc(C(=O)NCCCNCCCCN)cs2)cs1)C(C)O)C(OC1OC(CO)C(O)C(O)C1OC1OC(CO)C(O)C(OC(N)=O)C1O)c1c[nH]cn1 (stereo unspecified) ; GI50 = 3.56 µM (inactive)

Data point: `CCc1ccccc1NC(=O)c1cccc([N+](=O)[O-])c1O` ; GI50 = 31 µM (inactive)

Data point: `O=[N+]([O-])c1ccc(C2=Nn3c(nnc3-c3ccccc3)SC2)o1` ; GI50 = 15.7 µM (inactive)

Data point: `COc1ccc(/C=N/NC(=O)c2ccccc2Nc2ccccc2C(=O)N/N=C/c2ccc(OC)cc2)cc1` ; GI50 = > 100 µM (inactive)

Data point: `O=C1Nc2c(Cl)cccc2/C1=N/Nc1ccccc1[N+](=O)[O-]` ; GI50 = 28.9 µM (inactive)

Data point: `O=C1c2ccccc2-c2ccc(O)cc21` ; GI50 = 15.7 µM (inactive)

Data point: `Cc1c(-c2cnccn2)ssc1=S` ; GI50 = > 100 µM (inactive)

Data point: `Cn1nc2ccc3nccc(NCCNCCCl)c3c2n1` ; GI50 = > 100 µM (inactive)

Data point: `CCN(CC)CCSc1c2cc(OC)ccc2nc2ccc(OC)cc12` ; GI50 = 3.03 µM (inactive)
